- assay target: CYP3A4 (Homo sapiens, UniProt P08684)
- Sequence (P08684 whole entry): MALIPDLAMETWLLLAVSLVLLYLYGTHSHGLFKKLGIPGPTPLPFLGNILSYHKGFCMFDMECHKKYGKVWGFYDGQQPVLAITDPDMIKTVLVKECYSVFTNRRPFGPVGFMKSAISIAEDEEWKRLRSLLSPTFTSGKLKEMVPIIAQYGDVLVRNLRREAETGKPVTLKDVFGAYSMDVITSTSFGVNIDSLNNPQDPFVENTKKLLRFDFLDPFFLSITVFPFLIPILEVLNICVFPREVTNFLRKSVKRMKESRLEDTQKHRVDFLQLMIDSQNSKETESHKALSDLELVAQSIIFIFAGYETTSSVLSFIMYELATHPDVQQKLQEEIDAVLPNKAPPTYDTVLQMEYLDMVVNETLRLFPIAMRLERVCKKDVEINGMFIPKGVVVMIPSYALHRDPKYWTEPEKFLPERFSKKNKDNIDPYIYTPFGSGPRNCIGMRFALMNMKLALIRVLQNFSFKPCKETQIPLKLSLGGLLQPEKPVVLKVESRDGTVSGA
- protocol notes: Recombinant microsomal CYP-mediated EET biosynthesis (CYP3A4 Supersomes)
- study conditions: CYP3A4 epoxygenase activity
assay metric: Ki (µM)

INSERT INTO assay_data (compound, measured_result) VALUES
  ('CCCCCCNC(=N)NC(=N)NCc1ccccc1 [HBB, N1-hexyl-N5-benzyl-biguanide]', 9);

* * *

- protocol notes: MTD for daily dosing by two-fold dose escalation in tumor-bearing mice
- Assay type: in vivo
- study conditions: athymic nude (Foxn1nu/Foxn1nu), mouse, in vivo, ip
assay metric: MTD

INSERT INTO results (compound, assay_metric, measured_result) VALUES
  ('CCCCCCNC(=N)NC(=N)NCc1ccccc1 [HBB, N1-hexyl-N5-benzyl-biguanide]', 'MTD', '4 mg/kg/day');
